System: RAW-Dual (murine macrophage reporter line)
Protocol Description: NF-kB reporter (SEAP) activity fold change vs agonist alone; higher = enhanced NF-kB activity
Condition Notes: modulator concentration 10 µM; agonist: LPS 0.1 ug/mL
A collection of molecules and their measured NF-kB reporter
Measurement Kind: NF-kB reporter

1) C=C(C)COc1ccc(-c2ncncc2-c2ccccc2)c(O)c1
0.985
2) C#CCN[C@@H]1CCc2ccccc21.CS(=O)(=O)O
1.03
3) Cc1cccc(OCCn2cc(C=Nn3cnnc3)c3ccccc32)c1
1.12
4) C=CCNC(=O)COc1ccccc1C
0.887
5) Nc1nc(N)nc(-c2cc(Cl)ccc2Cl)n1
1
6) CC(=O)n1cc(C=C(C)[N+](=O)[O-])c2ccccc21
0.607
7) CC(C)Oc1ccc(Br)cc1C=C(C#N)c1nn(CCO)c(N)c1C#N
1.16
8) CCC(=O)Nc1ccc(S(=O)(=O)NCC2CCN(Cc3ccccc3)CC2)c(C)c1
0.961
9) O=C1c2ccc(-c3ccc4c(c3)C(=O)N(CCO)C4=O)cc2C(=O)N1CCO
1.03
10) CN1C(C(=O)Nc2ccccn2)=C(O)c2sc(Cl)cc2S1(=O)=O
0.896
11) O=C(Nc1ccc(S(=O)(=O)Nc2nccs2)cc1)c1c(F)cccc1F
1.02
12) COc1cc2ncnc(Nc3ccc(F)c(Cl)c3)c2cc1OCCCN1CCOCC1.Cl
0.978
13) COc1ccc(C(=O)Nc2ccc(Br)c(C)c2)cc1
1.1
14) CCOc1ccc(C=Nc2cccc3ncccc23)cc1
1.02
15) Cc1ccc(C2C=C(c3ccccc3)Nc3ncnn32)cc1 (stereo not drawn)
1.07
16) CC1(C)OC(=O)NC1=O [Prestw-829]
1.07
17) CN(C(=O)COc1coc(CN2CCN(c3ccccc3)CC2)cc1=O)c1ccccc1
0.933
18) CC(NC(=O)C(=O)Nc1ccc(F)cc1)c1ccccc1 (stereo not drawn)
0.984
19) CN(C)CCN(Cc1ccccc1)Cc1cc(Cl)cc(Cl)c1O
0.918
20) COc1cc(NC(=O)COc2cc(C)c(Cl)c(C)c2)cc(OC)c1
0.954
21) Cl.O=C(c1ccc(OCCN2CCCCC2)cc1)c1c(-c2ccc(O)cc2)sc2cc(O)ccc12
1.14
22) COc1c2occc2cc2ccc(=O)oc12
1.21
23) Cc1ccc(-c2nc(O)nc3ccccc23)cc1
1.11
24) COC(=O)C1=C(C)N(C)C(C)=C(C(=O)OC)C1c1cccc(C(F)(F)F)c1
1.07
25) CCOc1ccccc1OCCCCOc1ccc(Cl)c(C)c1
1.12
26) O=C(CN1CCN(c2ccccc2F)C1=O)N1CCCC(Oc2cnccn2)C1 (stereo not drawn)
0.931
27) CCOc1ccc(Cc2cc([C@@H]3O[C@H](SC)[C@@H](O)[C@H](O)[C@H]3O)ccc2Cl)cc1
1.27
28) CCN(CC)c1ccc(C=C(C#N)c2n[nH]c(N)c2C#N)c(OC)c1
0.885
29) CC[C@H](Nc1ncnc2[nH]cnc12)c1nc2cccc(F)c2c(=O)n1-c1ccccc1
0.973
30) COc1cc2ncnc(Nc3ccc(F)c(Cl)c3)c2cc1NC(=O)/C=C/CN1CCCCC1
0.936
31) COC(=O)Nc1nc2ccc(S(=O)c3ccccc3)cc2[nH]1 (stereo not drawn)
1.04
32) Cc1nc2n(c(=O)c1CCN1CCC(c3noc4cc(F)ccc34)CC1)CCCC2
0.982
33) CC(C)NCC(O)COc1cccc2ccccc12 (stereo not drawn) [Prestw-1075]
0.92

====

Tested on: RAW-Dual (murine macrophage reporter line)
Protocol Description: IRF reporter (Lucia luciferase) activity fold change vs agonist alone; higher = enhanced IRF activity
Condition Notes: modulator concentration 10 µM; agonist: LPS 0.1 ug/mL
Short version: IRF reporter at least 1 is Condition met, less is Condition not met.

1. CC1CC(C)CN(S(=O)(=O)CCCOc2ccc3c(c2)OCO3)C1 (stereo unspecified)
Condition met
2. Fc1ccc(CN2CCc3c([nH]c4ccccc34)C2)c(F)c1
Condition met
3. CC1(C)CC(=O)C2=C(C1)OC(N)=C(C#N)C2C1CCCCC1 (stereo unspecified)
Condition met
4. COc1ccccc1N1CCN(CC(O)COc2cccc3ccccc23)CC1.Cl.Cl (stereo unspecified)
Condition met
5. COc1cccc2c1C(=O)c1c(O)c3c(c(O)c1C2=O)C[C@@](O)(C(C)=O)C[C@@H]3O[C@H]1C[C@H](N)[C@H](O)[C@H](C)O1 [Prestw-487]
Condition not met
6. CCOC(=O)[C@@H](N)Cc1ccc(-c2cc(O[C@H](c3ccc(Cl)cc3-n3ccc(C)n3)C(F)(F)F)nc(N)n2)cc1.O=C(O)CNC(=O)c1ccccc1
Condition not met
7. CC(=O)OC1(C(C)=O)CCC2C3CC(C)C4=CC(=O)CCC4(C)C3CCC21C (stereo unspecified)
Condition met
8. CCOC(=O)c1cnn(CCOc2ccccc2)c1N
Condition met
9. COc1ccc(OC)c2sc(NC(=O)C(C)C)nc12
Condition not met
10. O=C(NC1CCCCC1)N(Cc1cnc2ccccn12)c1ccccc1
Condition met
11. Cc1ccc(CNC(=O)CN(c2cccc3ccccc23)S(C)(=O)=O)cc1
Condition met
12. CCOC(=O)C1=C(C)NC(=S)NC1c1cccc(C)c1 (stereo unspecified)
Condition not met
13. Oc1ccc(CN2CCOCC2)cc1
Condition met
14. CCOC(C#CCN(CC)CC)(c1ccccc1)c1ccccc1.Cl
Condition not met
15. O=C(C=Cc1ccc(-c2cccc(Cl)c2)o1)c1ccc(Cl)cc1
Condition not met
16. CCOC(=O)C1=C(C)NC(C)=C(C(=O)OCC)C1c1ccccc1/C=C/C(=O)OC(C)(C)C
Condition met
17. CCOc1nc2cccc(C(=O)O)c2n1Cc1ccc(-c2ccccc2-c2nnn[nH]2)cc1 [Prestw-1258]
Condition not met
18. CCOC(=O)C1CCN(C(=O)c2ccc(C#CC(C)(C)O)cc2)CC1
Condition met
19. Cc1ccc(C2(c3ccc(C)cc3)CC2C(=O)Nc2ccccc2)cc1 (stereo unspecified)
Condition not met
20. COc1cc(O)c2c(=O)cc(-c3ccc(O)cc3)oc2c1
Condition not met
21. CCOC(=O)C1=C(C)N(c2ccc(OC)cc2)C(=O)C1=Cc1ccc(C(C)C)cc1
Condition met
22. Oc1c(Br)cc(C=NNc2nc3ccccc3s2)c(O)c1Br
Condition met
23. Nc1ccc(S(=O)(=O)NCCO)cc1
Condition met

====

Test system: RAW-Dual (murine macrophage reporter line)
Protocol Description: IRF reporter (Lucia luciferase) activity fold change vs agonist alone; higher = enhanced IRF activity
Condition Notes: modulator concentration 10 µM; agonist: LPS 0.1 ug/mL
Measurement Kind: IRF reporter

1. COc1ccc2c(c1)c(CC(=O)OCC(=O)O)c(C)n2C(=O)c1ccc(Cl)cc1
1.15
2. CCN(CC)c1ccc2cc(-c3nnc(NCc4ccccc4)s3)c(=O)oc2c1
1.47
3. Oc1cc(O)c2c(c1)OC(c1ccc(O)c(O)c1)C(O)C2 (stereo not drawn)
1.13

====

Test system: RAW-Dual (murine macrophage reporter line)
Protocol Description: NF-kB reporter (SEAP) activity fold change vs agonist alone; higher = enhanced NF-kB activity
Condition Notes: modulator concentration 10 µM; agonist: MPLA […]
Short version: NF-kB reporter at least 1 is yes, less is no.

1) N#CCCN(C1CCCCC1)S(=O)(=O)c1cccc2nsnc12
yes
2) CN(C/C=C/C#CC(C)(C)C)Cc1cccc2ccccc12.Cl
no
3) C1=CC2CC1CC2CN1CCC(N2CCCCC2)CC1 (configuration not stated)
yes
4) O=C(NN=Cc1c(O)ccc2ccccc12)c1[nH]ncc1I
yes
5) O=C(NC(=S)Nc1ccccc1C(F)(F)F)c1cccc(I)c1
no
6) CC(C)NCC(O)COc1ccccc1C(C)(C)C.Cl (configuration not stated)
yes
7) CN(C)S(=O)(=O)N1CCC(CNC(=O)NC2CCCC2)CC1
no
8) CN(C)CCC=C1c2ccccc2COc2ccccc21.Cl
yes
9) CCN1CC(CCN2CCOCC2)C(c2ccccc2)(c2ccccc2)C1=O (configuration not stated)
yes
10) CCN(CC)c1ccc(C=Nn2nnnc2N)c(O)c1
yes
11) COc1ccc(OC)c(Nc2nc(-c3c(C)nc4ccccn34)cs2)c1
yes
12) FC(F)(F)c1ccc(CN2CCCC(c3nc4ccccc4[nH]3)C2)cc1 (configuration not stated)
no
13) COC(=O)C1=C(C)NC(C)=C(C(=O)OCCN(C)Cc2ccccc2)C1c1cccc([N+](=O)[O-])c1.Cl (configuration not stated)
no
14) COC(CNS(=O)(=O)Cc1ccccc1)c1ccc(Cl)s1 (configuration not stated)
no
15) CC(=O)C1=C(C)OC2(O)c3ccccc3C(=O)C12O (configuration not stated)
yes

====

Test system: RAW-Dual (murine macrophage reporter line)
Protocol Description: IRF reporter (Lucia luciferase) activity fold change vs agonist alone; higher = enhanced IRF activity
Condition Notes: modulator concentration 10 µM; agonist: 3'3'-cGAMP 10 ug/mL
Measurement Kind: IRF reporter

1) O=C(COCc1ccccc1)NC1CCC(F)(F)CC1
0.643
2) CC(C)CC(C(=O)Nc1ccc(Cl)cc1)N1C(=O)c2ccccc2C1=O (stereo unspecified)
0.988
3) CC(C)(C)C1CCc2c(sc(NC(=O)c3ccc(Cl)cc3)c2C(N)=O)C1 (stereo unspecified)
0.961
4) CCOP(C)(=O)C(c1ccccc1)N(C)S(C)(=O)=O (stereo unspecified)
1.03
5) O=C(Nc1cccc(C(F)(F)F)c1)Nc1cnn(CC2COc3ccccc3O2)c1 (stereo unspecified)
0.913
6) COc1ccc(N(CC(=O)N2CCc3ccccc3C2)S(C)(=O)=O)c(OC)c1
0.992
7) O=C(O)c1coc(CNC(=O)c2cocc2C(=O)O)c1
0.996
8) CNS(=O)(=O)C[C@H]1CC[C@H](N(C)c2ncnc3[nH]ccc23)CC1.O=C(O)/C=C\C(=O)O
0.0771
9) COc1c(OC)c2occc2c2oc(=O)ccc12
0.551
10) COc1ccc(C2=NN(C(=O)c3ccc(Br)cc3)C(c3nc4ccccc4[nH]3)C2)cc1 (stereo unspecified)
0.92
11) COc1cc(/C=C/C(=O)/C=C(O)/C=C/c2ccc(O)c(OC)c2)ccc1O
0.0871

All values here come from the supplement of paper PMC10646978.
